The measurements presented in this section are drawn from ChEMBL document CHEMBL5727696.

Assay: Revised Biochemical Assay: Full-length PRMT5 enzyme (NCBI Reference sequence NP_006100.2) was co-expressed with Hiss-MEP50 in insect cells and purified via Nickel immobilized metal affinity and gel filtration chromatography (“the enzyme”).The 6 μL reactions are run in Greiner brand black 384-well low volume assay plates. All reactions contained assay buffer (phosphate buffered saline, 0.01% (v/v) Tween-20, 0.01% (w/v) albumin from chicken egg white, 1 mM Dithiothreitol, 1 μM peptide substrate, 1 μM S-Adenosyl methionine, and 15 ng/reaction enzyme, with the enzyme being omitted from negative control reactions. Compounds were added in a volume of 100 nL from dilution series prepared in DMSO, positive and negative control reactions receiving the same volume DMSO without compound. The plates were sealed with adhesive seals and incubated for 4 hours at 37 degree Celsius. Reaction progress was measured using the Transcreener™ EPIGEN methyltransferase assay (BellBrook Labs, Madison, Wis.) as recommended by the manufacturer. To each reaction 2 μL detection mix were added, containing coupling enzymes, fluorescence polarisation tracer, and AMP antibody. Plates were incubated for 90 minutes before being read on a PerkinElmer EnVision plate reader in fluorescence polarisation mode.
ENDPOINT NAME: IC50
I'd appreciate it if you included the unit after the number.

Incoming: Give a short answer stating reported IC50 for N#Cc1ccc(C(=O)NCCC(O)CN2CCc3ccccc3C2)cc1 (stereo unspecified) .
Outgoing: 3.98 µM
